Hey, just so you know, these numbers are from patent US6162417A.

Experiment: Tissue distribution of radioactivity after intravenous administration (Table 6)
Assay type: in vivo, Sprague Dawley rats
Measurement parameters: thyroid, rat, i.v., 30 min, mean (range) of 4 rats, read-out: Thyroid, mean % injected dose/gram
Measured parameter: tissue uptake at 0.5 h (%ID/g)
The figure you give is taken to be in %ID/g; do not add the unit.

// tissue uptake at 0.5 h lookup, key: Ic1ccc([C@@H]2CN3CCC[C@@H]3c3ccccc32)cc1
1.07

* * *

Experiment: Regional brain distribution of radioactivity after intravenous administration (Table 4)
Assay type: in vivo, Sprague-Dawley rats
Measurement parameters: hypothalamus, iv; rat, i.v., 30 min, mean of three rats; read-out: Hypothalamus, mean % injected dose/gram
Measured parameter: tissue uptake at 0.5 h (%ID/g)
The figure you give is taken to be in %ID/g; do not add the unit.

// tissue uptake at 0.5 h lookup, key: [123I]c1ccc([C@@H]2CN3CCC[C@@H]3c3ccccc32)cc1 [(+)-[^123 I]6]
3.59
